# System Tested: T1, purified human CD45 ectodomain (human CD45RABC antigen) (human, UniProt P08575 26-577)
# T1 construct: also called hCD45
# T1 sequence: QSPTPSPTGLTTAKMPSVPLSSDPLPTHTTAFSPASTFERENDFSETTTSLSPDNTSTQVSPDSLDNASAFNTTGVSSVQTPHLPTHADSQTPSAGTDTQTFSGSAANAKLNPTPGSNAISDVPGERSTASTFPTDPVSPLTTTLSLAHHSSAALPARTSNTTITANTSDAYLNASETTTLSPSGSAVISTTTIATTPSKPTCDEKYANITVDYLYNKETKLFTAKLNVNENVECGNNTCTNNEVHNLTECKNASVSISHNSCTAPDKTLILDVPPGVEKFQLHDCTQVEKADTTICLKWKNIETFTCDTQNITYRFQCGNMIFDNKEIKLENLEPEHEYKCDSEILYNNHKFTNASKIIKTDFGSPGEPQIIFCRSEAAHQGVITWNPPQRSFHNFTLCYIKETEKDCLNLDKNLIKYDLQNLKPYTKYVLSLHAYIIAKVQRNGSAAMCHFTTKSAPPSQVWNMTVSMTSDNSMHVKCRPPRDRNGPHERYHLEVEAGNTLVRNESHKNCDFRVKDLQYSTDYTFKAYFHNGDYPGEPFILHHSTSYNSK
# Assay Text: BLI (Octet Red96), IgG on anti-human Fc sensor, 50 nM CD45 ectodomain, 1:1 fit
Measured koff, listed per entry.

{"columns": ["Binder", "koff, s⁻¹"],
 "data": [
  ["Antibody 6 (Ab6) (antibody, V domains shown) VH: EVQLVESGGGLVQPGGSLRLSCAASGFTFEAYSMNWVRQAPGKGLEWVSYISLSGATIHYADSVKGRFTISRDNAKNSLYLQMNSLRAEDTAVYYCARGGQYYYTSSDYGEVAFDIWGQGTLVTVSS VL: DIVLTQSPLSLPVTPGEPASISCRSSQSLVSSGYNYLDWYLQKPGQSPQLLIYFGSSRASGVPDRFSGSGSGTDFTLKISRVEAEDVGVYYCMQRRRTPWSFGGGTKVEIK", "1.73e-05"],
  ["Antibody 2 (Ab2) (antibody, V domains shown) VH: EVQLVESGGGLVQPGGSLRLSCAASGFTFEAYSMNWVRQAPGKGLEWVSYISLSGATIHYADSVKGRFTISRDNAKNSLYLQMNSLRAEDTAVYYCARGGQYYYDSSDYGEVAFDIWGQGTMVTVSS VL: DIVMTQSPLSLPVTPGEPASISCRSSQSLVSNGYNYLDWYLQKPGQSPQLLIYFGSSRASGVPDRFSGSGSGTDFTLKISRVEAEDVGVYYCMQRRRTPWSFGGGTKVEIK", "2.8e-05"],
  ["Antibody 4 (Ab4) (antibody, V domains shown) VH: EVQLVESGGGLVQPGGSLRLSCAASGFTFEAYSMNWVRQAPGKGLEWVSYISLSGATIHYADSVKGRFTISRDNAKNSLYLQMNSLRAEDTAVYYCARGGQYYYTSSDYGEVAFDIWGQGTMVTVSS VL: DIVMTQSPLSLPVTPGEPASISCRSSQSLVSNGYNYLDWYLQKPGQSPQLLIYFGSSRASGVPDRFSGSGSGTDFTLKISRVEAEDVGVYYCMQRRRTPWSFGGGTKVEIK", "3.28e-06"],
  ["Antibody 3 (Ab3) (antibody, V domains shown) VH: QVQLVESGGGLVKPGGSLRLSCAASGFTFGGYSMNWVRQAPGKGLEWVSYISISGATITYADSVKGRFTISRDNAKNSLYLQMNSLRAEDTAVYYCARGGQYYYDSSDYGEVAFDIWGQGTMVTVSS VL: DIVMTQSPLSLPVTPGEPASISCRSSQSLVSNGYNYLDWYLQKPGQSPQLLIYFGSSRASGVPDRFSGSGSGTDFTLKISRVEAEDVGVYYCMQRRRTPPFTFGGGTKVEIK", 0.000225],
  ["Antibody 7 (Ab7) (antibody, V domains shown, Human IgG: Ab3 with the Asn to Ser substitution in CDR-L1) VH: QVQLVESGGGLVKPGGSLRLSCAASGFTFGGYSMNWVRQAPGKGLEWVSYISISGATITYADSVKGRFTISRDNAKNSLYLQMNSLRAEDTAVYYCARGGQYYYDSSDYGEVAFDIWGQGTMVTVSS VL: DIVMTQSPLSLPVTPGEPASISCRSSQSLVSSGYNYLDWYLQKPGQSPQLLIYFGSSRASGVPDRFSGSGSGTDFTLKISRVEAEDVGVYYCMQRRRTPPFTFGGGTKVEIK", 0.000615],
  ["Antibody 5 (Ab5) (antibody, V domains shown, Human IgG: Ab4 with the Asn to Ser substitution in CDR-L1) VH: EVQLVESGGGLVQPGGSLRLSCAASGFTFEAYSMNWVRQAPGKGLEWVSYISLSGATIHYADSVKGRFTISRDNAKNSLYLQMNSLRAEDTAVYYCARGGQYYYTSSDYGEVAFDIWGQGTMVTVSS VL: DIVMTQSPLSLPVTPGEPASISCRSSQSLVSSGYNYLDWYLQKPGQSPQLLIYFGSSRASGVPDRFSGSGSGTDFTLKISRVEAEDVGVYYCMQRRRTPWSFGGGTKVEIK", "3.36e-05"]
]}
